Data provenance is the supplement of paper PMC9170038.

System: MS2 coat protein
method notes: apparent KD of MS2 coat protein; designed switch direction (-1 OFF switch, 1 ON switch): -1; higher = weaker reporter binding
experimental parameters: input ligand: none
observation type: apparent KD of MS2 coat protein
Reply with the number and its unit after it.

// recorded apparent KD of MS2 coat protein for UGGUCACAUGAGGAUCACCCAUGUCAGGAUAUCUACAUUGAAGCCUCGGCUUCAAUGUAGAGAAGGGACAUAAU [E1/6-B2] (Eterna round: R97, puzzle: Exclusion 1) : 265 nM

For record CUAUGAGCUGAGGAUAUCUGCAGGUUGGGCCUGGGAGAAGGCGGCACAUGAGGAUCACCCAUGUGACCGAAAUA [Mod2 Ex6 A.17 by Nando] (Eterna round: R97, puzzle: Exclusion 6) the listed apparent KD of MS2 coat protein is 12.7 nM

apparent KD of MS2 coat protein recorded for this sequence, CAGUACUGAGGAUAUACAUGAGGAUCACCCAUGUGUCUUCUAUUAGGAAACUAGUUAUGUAGAAGGCAGUACUG [Omei Ex3 Mod of Eli 4.27 v8] (Eterna round: R97, puzzle: Exclusion 3) , is 16.9 nM

Lookup result for AUGUUGCGAGGAUAUAUAAGGGUAUAUUAAUAAGAUAUGGAACAUGAGGAUCACCCAUGUAGAAGGUGCAUAAC [JR_Ex2_Sub041] (Eterna round: R97, puzzle: Exclusion 2) ; measured apparent KD of MS2 coat protein: 33.6 nM

// apparent KD of MS2 coat protein value for ACAUGAGGAUCACCCAUGUCUGGCUGGUCUGCUCCGGCUGUUGAGGAUAUAGUCCGGUGUUCGCGCUAGAAGGCGAGGGCUGGA [Aenatbe mod 42] (Eterna round: R96, puzzle: Exclusion NG 3) : 48.4 nM

Others:
Note to self: apparent KD of MS2 coat protein recorded for ACAUGAGGAUCACCCAUGUGACCACAAUGGCUGAUGUAACAACAGGAUAUGCGUGAAUAUCUAACGCAGAAGGGUUUUGACUGG [Deportation 59 - Jieux - Exclusion NG 3] (Eterna round: R96, puzzle: Exclusion NG 3) was 91.1 nM

The measured apparent KD of MS2 coat protein associated with CACCUGAGAGGAUAUACGUUGAUGUUAUGCUAUGGAAAGUUACAUGAGGAUCACCCAUGUAGAAGGCUCAGGUA [Eternabot (L2) Solution 48] (Eterna round: R97, puzzle: Exclusion 2) reads 18.8 nM

Lab note: measured apparent KD of MS2 coat protein of GUUGUUUAUGUAGGAUAUGCCAGGCGAGCCUAAGCAGAAGGACAUGAGGAUCACCCAUGUAUUGCGGUCUGCGUUCAGAUCGCU [salish99_ExNG1_r4_017] (Eterna round: R96, puzzle: Exclusion NG 1) was 23.7 nM

In plain terms, AAGGGUACUUUCGGAACGACAUGAGGAUCACCCAUGUAUACUGAGGAUAUCCACUACUAAGGACGGGAGAAGGCAGUGUAAUGU [Ex NG3 #78] (Eterna round: R96, puzzle: Exclusion NG 3) has a documented apparent KD of MS2 coat protein of 18.5 nM

Summary for this sequence, UAAUUAGCAAGUAGAUCCGACAUGAGGAUCACCCAUGUUAUCUGAAAGAACGCAGAAUAACUGUGAGCUCGUCUAAA [Sensor-V1 #1] (Eterna round: R97, puzzle: Sensor, turn-off variant 1) : apparent KD of MS2 coat protein is 333 nM

apparent KD of MS2 coat protein in this record for GGAAUGAGAGAGGAUAUGGGAGGGAGGACCGGACCAGAAGGCUCGACAUGAGGAUCACCCAUGUAGAGAUCCUC [AK-MS2ROC-r4-exclusion6-6.10] (Eterna round: R97, puzzle: Exclusion 6) : 75.7 nM

The sequence listed as AUGGGUCCUCACGGAGCUACAUGAGGAUCACCCAUGUGGAUUGAGGAUAUCGACAGCCGACGGCUCGAGAAGGCAGUUUACUGU [Ex NG3 #96] (Eterna round: R96, puzzle: Exclusion NG 3) shows apparent KD of MS2 coat protein equal to 26.4 nM
